The values you see were collected from ChEMBL document CHEMBL5226326.

- System name: Catenin beta-1/Cadherin-1 (Homo sapiens, UniProt P35222)
- Sequence (P35222 whole entry, the tested form may be a part): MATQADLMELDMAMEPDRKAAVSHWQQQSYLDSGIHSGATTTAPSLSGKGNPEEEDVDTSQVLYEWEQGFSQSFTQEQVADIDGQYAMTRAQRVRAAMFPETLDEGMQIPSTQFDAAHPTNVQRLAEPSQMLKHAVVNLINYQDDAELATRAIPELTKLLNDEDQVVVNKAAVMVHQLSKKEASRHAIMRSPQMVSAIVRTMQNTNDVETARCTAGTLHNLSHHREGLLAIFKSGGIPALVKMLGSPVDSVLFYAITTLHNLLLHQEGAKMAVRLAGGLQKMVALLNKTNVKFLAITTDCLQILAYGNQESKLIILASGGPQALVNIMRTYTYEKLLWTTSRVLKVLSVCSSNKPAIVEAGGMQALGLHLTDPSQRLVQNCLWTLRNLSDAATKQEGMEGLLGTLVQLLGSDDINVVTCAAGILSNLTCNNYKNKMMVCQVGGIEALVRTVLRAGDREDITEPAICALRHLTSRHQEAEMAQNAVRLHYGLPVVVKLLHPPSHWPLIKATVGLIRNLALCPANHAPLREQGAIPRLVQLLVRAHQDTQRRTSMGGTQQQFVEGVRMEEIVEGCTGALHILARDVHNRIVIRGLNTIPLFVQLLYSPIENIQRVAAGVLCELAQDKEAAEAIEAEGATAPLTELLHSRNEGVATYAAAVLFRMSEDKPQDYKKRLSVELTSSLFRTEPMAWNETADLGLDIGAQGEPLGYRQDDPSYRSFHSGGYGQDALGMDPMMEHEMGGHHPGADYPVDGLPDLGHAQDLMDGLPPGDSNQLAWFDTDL
- Sequence (P12830 whole entry, further chain, the tested form may be a part): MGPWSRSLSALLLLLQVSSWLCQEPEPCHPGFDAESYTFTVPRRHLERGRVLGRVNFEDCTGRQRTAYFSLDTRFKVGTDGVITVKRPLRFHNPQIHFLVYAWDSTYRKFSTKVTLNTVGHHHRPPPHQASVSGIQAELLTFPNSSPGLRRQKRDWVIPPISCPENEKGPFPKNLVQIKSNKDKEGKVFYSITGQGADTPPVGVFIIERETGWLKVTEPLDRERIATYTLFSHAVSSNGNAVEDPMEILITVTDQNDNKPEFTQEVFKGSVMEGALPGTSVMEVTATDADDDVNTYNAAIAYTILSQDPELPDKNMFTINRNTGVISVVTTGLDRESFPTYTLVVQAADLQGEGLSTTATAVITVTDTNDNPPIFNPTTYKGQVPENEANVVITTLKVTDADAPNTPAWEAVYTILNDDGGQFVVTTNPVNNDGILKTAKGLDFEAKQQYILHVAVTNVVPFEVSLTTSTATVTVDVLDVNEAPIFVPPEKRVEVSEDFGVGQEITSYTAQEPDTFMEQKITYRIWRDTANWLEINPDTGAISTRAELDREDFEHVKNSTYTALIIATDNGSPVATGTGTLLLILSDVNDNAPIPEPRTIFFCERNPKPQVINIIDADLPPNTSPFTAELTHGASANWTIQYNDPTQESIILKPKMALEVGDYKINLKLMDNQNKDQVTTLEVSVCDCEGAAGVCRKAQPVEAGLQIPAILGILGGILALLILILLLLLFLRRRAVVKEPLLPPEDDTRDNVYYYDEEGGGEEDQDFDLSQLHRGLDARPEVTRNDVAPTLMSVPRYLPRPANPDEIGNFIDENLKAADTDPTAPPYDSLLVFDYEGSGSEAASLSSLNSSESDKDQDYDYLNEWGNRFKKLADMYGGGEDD
- Experiment summary: Inhibition of full length beta-catenin (1 to 686 residues) (unknown origin) expressed in Escherichia coli BL21 (DE3)/N-terminal biotinylated human E-cadherin (824 to 877 residues) protein-protein interaction incubated for 2 hr by Alphascreen assay
Measurement kind: Kd
Form entry: enter the amount, then its unit.

Looking up CC(C)(C)C1CCC(c2cc(C(=O)N3CCC(Oc4cc(N5CCNCC5)ccc4C#N)CC3)ccc2O[C@H]2CCNC2)CC1.Cl.Cl (mixture of isomers; cis) , I found its Kd recorded as 80 µM

* * *

- Experiment summary: Inhibition of full length beta-catenin E155A mutant/N-terminal biotinylated human BCL9 HD2 (350 to 375 residues) protein-protein interaction in human SW480 cells incubated for 1 hr by Alphascreen assay
- Assay type: cell-based
Measurement kind: pKi
Entry type: numeric. Quantity: pKi, the -log10 of concentration in molar units.

Looking up CC(C)(C)C1CCC(c2cc(C(=O)N3CCC(Oc4cc(N5CCNCC5)ccc4C#N)CC3)ccc2O[C@H]2CCNC2)CC1.Cl.Cl (mixture of isomers; cis) , I found its pKi recorded as 5.44
